# pIC50 listing for each entry below
target: TNFα / TNFα receptor (TNFα R1/Fc) (Homo sapiens, UniProt P01375); construct: purchased R&D Systems; experiment: Inhibition of binding of TNFα to the TNFα receptor (plate ELISA competition); details: Table 2; read-out: Activity (IC50, inhibition of TNFα binding to TNFα R1/Fc)
Sequence (P01375 77-233 limits assumed, species assumed): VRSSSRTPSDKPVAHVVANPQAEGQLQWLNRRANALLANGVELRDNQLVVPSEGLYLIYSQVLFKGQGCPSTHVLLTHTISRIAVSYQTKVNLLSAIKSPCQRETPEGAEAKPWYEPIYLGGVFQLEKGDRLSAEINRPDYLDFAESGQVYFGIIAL
pIC50: −log10 of the molar value. Numbered stars: 1 amine (or outer) side, 2 acyl side, 3 side chain; on linkers, the order of the positions; unused ones are H or OH. Bridge positions count the residues as written; N and C are the ends. Square brackets hold non-standard residues; d marks the D form. Peptide text beside a SMILES is read from it. Bip = N[C@@H](Cc1ccc(-c2ccccc2)cc1)C(=O)O; dPhe(4-NH2) = Nc1ccc(C[C@@H](N)C(=O)O)cc1; d(hPhe) = N[C@H](CCc1ccccc1)C(=O)O; Suc = O=C(CCC(=O)[*:2])[*:1]

Example compounds with recorded pIC50:
compound	assay_endpoint	measured_result
O=C1COc2ccc(cc2)C[C@@H](C(=O)O)NC(=O)[C@H](CCc2ccccc2)NC(=O)[C@@H](Cc2ccc(-c3ccccc3)cc2)NC(=O)[C@H](Cc2c[nH]c3ccccc23)N1	pIC50	> 5.00
O=C1CCC(=O)N[C@H](CCc2ccccc2)C(=O)N[C@@H](Cc2ccc(-c3ccccc3)cc2)C(=O)N[C@H](Cc2ccccc2)C(=O)N[C@@H](C(=O)O)Cc2ccc(cc2)N1 [Compound 172] ([d(hPhe)][Bip][dF][dPhe(4-NH2)]-OH; linker N-4 via Suc)	pIC50	> 5.00

API: the following record is the query input.
What pIC50 value was documented for this compound, O=C(O)[C@@H]1Cc2ccc(cc2)NC(=O)[C@H](O)[C@@H](O)C(=O)N[C@H](Cc2cccs2)C(=O)N[C@@H](Cc2ccc(-c3ccc(Cl)cc3)cc2)C(=O)N[C@H](Cc2ccccc2)C(=O)N1 ?
> 5.00

====

Catalogue of pIC50 values
target: TNFα / TNFα receptor (TNFα R1/Fc) (Homo sapiens, UniProt P01375); construct: purchased R&D Systems; experiment: Inhibition of binding of TNFα to the TNFα receptor (plate ELISA competition); conditions: Table 2; read-out: Activity (IC50, inhibition of TNFα binding to TNFα R1/Fc)
pIC50: −log10 of the molar value. Numbered stars: 1 amine (or outer) side, 2 acyl side, 3 side chain; on linkers, the order of the positions; unused ones are H or OH. Bridge positions count the residues as written; N and C are the ends. Square brackets hold non-standard residues; d marks the D form. Peptide text beside a SMILES is read from it. * marks the point of attachment. Phe(4-COOH) = N[C@@H](Cc1ccc(C(=O)O)cc1)C(=O)O; Bip = N[C@@H](Cc1ccc(-c2ccccc2)cc1)C(=O)O; dBip = N[C@H](Cc1ccc(-c2ccccc2)cc1)C(=O)O; dPhe(4-NH2) = Nc1ccc(C[C@@H](N)C(=O)O)cc1; Phe(4-NH2) = Nc1ccc(C[C@H](N)C(=O)O)cc1; Met(O2) = CS(=O)(=O)CC[C@H](N)C(=O)O; d(hPhe) = N[C@H](CCc1ccccc1)C(=O)O; d2Thi = N[C@H](Cc1cccs1)C(=O)O; Suc = O=C(CCC(=O)[*:2])[*:1]; NHCH2SO3H = O=S(=O)(O)CN*; GABA = NCCCC(=O)O; βAla = NCCC(=O)O

molecule	pIC50
O=C(O)CCCNC(=O)[C@@H]1Cc2ccc(cc2)C(=O)NCCC(=O)N[C@H](CCc2ccccc2)C(=O)N[C@@H](Cc2ccc(-c3ccccc3)cc2)C(=O)N[C@H](Cc2ccccc2)C(=O)N1 [Compound 421] ([βAla][d(hPhe)][Bip][dF][Phe(4-COOH)][GABA]-OH; lactam N-5)	> 5.00
CS(=O)(=O)CC[C@@H]1NC(=O)[C@@H](Cc2cccs2)NC(=O)CCC(=O)Nc2ccc(cc2)C[C@@H](C(=O)O)NC(=O)[C@@H](Cc2ccccc2)NC1=O [Compound 98] ([d2Thi][Met(O2)][dF][Phe(4-NH2)]-OH; linker N-4 via Suc)	< 4.00
O=C1COc2ccc(cc2)C[C@@H](C(=O)N[C@H](CCc2ccccc2)C(=O)O)NC(=O)[C@H](Cc2ccccc2F)NC(=O)[C@@H](Cc2ccc(-c3ccccc3)cc2)NC(=O)[C@H](Cc2ccncc2)N1	> 5.00
COc1cccc(C[C@@H]2NC(=O)[C@H](Cc3cccs3)NC(=O)COc3ccc(cc3)C[C@@H](C(=O)O)NC(=O)[C@H](Cc3ccccc3)NC2=O)c1	< 4.00
O=C1CCC(=O)N[C@H](CCc2ccccc2)C(=O)N[C@@H](Cc2ccc(-c3ccccc3)cc2)C(=O)N[C@H](Cc2ccccc2)C(=O)N[C@H](C(=O)N[C@@H](Cc2ccccc2)C(=O)NCS(=O)(=O)O)Cc2ccc(cc2)N1 [Compound 542] ([d(hPhe)][Bip][dF][Phe(4-NH2)]F-NHCH2SO3H; linker N-4 via Suc)	> 5.00

I would be grateful if you could share the reported pIC50 for O=C1CCC(=O)N[C@H](Cc2cccs2)C(=O)N[C@H](Cc2ccc(-c3ccccc3)cc2)C(=O)N[C@H](Cc2ccccc2)C(=O)N[C@@H](C(=O)O)Cc2ccc(cc2)N1 [Compound 498] ([d2Thi][dBip][dF][dPhe(4-NH2)]-OH; linker N-4 via Suc) .
< 4.00

Form field: reported pIC50 of O=C1COc2ccc(cc2)C[C@@H](C(=O)O)NC(=O)[C@H](Cc2cccc(C(F)(F)F)c2)NC(=O)[C@@H](Cc2ccc(-c3ccccc3)cc2)NC(=O)[C@H](Cc2ccncc2)N1
> 5.00

I'd like to know its pIC50. The molecule in question is O=C1COc2ccc(cc2)C[C@@H](C(=O)O)NC(=O)[C@H](Cc2ccccc2)NC(=O)[C@H](Cc2ccc(-c3ccc(F)cc3)cc2)NC(=O)[C@H](Cc2cccs2)N1
> 5.00
